Listed below: apparent KD of MS2 coat protein values for each entry.
# Test system: MS2 coat protein
# protocolText: apparent KD of MS2 coat protein; higher = weaker reporter binding
# reportedConditions: Eterna round: R107; input ligand: theophylline 20 uM
Respond with a number, then the unit of measure.

Before answering, review these 6 worked examples.
{"constructSequence": "AAAGCCACUUCGGCCGCCACUACAACAUGAGGAUCACCCAUGUACCUCGUGUACGGUCCGAGGAGUAGGACCGGGAAGUGGUGGA [(T1'')-(Trp1)-(Ms2)-(M')-(T2')-(M'')-(Trp2)-(T1')]", "testValue": "0.193 µM"}
{"constructSequence": "AUCGUACCUAGUGAUACCAGCAAGUGAUCAUAACAUGAGGAUCACCCAUGUAAUCAGUGAUGCCCUUGGCAGCAUAAUCGUUACA [Same State - Theophylline B (Freestyle 1)]", "testValue": "0.228 µM"}
{"constructSequence": "GGGCAAGAGGGAAGGAGCGUCGGCUGAGUAACAUGAGGAUCACCCAUGUAGCACAUAGUGUGGCAGGUAGGUCGCCCUCUGCCCU [SS-ArgB7]", "testValue": "0.0169 µM"}
{"constructSequence": "ACAUGAGGAUCACCCAUGUCAGGGCACGAUACCAGCUGAUCCGGUGGCCCUUGGCAGCGUGACGUUUGGUCCCGCGGAUCACACG [xxmullin]", "testValue": "0.262 µM"}
{"constructSequence": "AUUAAGGAUAUGUAGAAGGCGGAGAAGAGACGAGGACCGGUACGGCCGCCACUCGUGUUAGUUAACAUGAGGAUCACCCAUGUAA [#06 Tryptophan A Same State]", "testValue": "0.0723 µM"}
{"constructSequence": "UAGCGAUAAUCUGAUACCAGACGUGUACUCUCCUCAGACAUGAGCAUCAGCCAUGUAUGCGUCCCUUGGCAGCAGAGAUAGGAGA [Theo B Ex t5b]", "testValue": "0.0245 µM"}

Moving on to the next sequence.
**Q:** Provide the documented apparent KD of MS2 coat protein with MS2 coat protein as the system for UAACAUGAGGAUCACCCAUGUAAACUAAGUCGAGGACCGGUACGGCCGCCACUCGAAAUUGAAGAAUUGGCGGAAAAUGUAUGUU [JR_ExcTryptoA_Sub018]
**A:** 0.0177 µM

###

# System: MS2 coat protein
# protocolText: apparent KD of MS2 coat protein; designed switch direction (-1 OFF switch, 1 ON switch): -1; higher = weaker reporter binding
# reportedConditions: input ligand: microRNA oligo, concentration not stated
Listed below: apparent KD of MS2 coat protein values for each entry.
# unit: nM | format: bare number

Before answering, review these 8 worked examples.
{"constructSequence": "UUAUUAUAUGUAGGAUAUGCAUAUUGUUGUUAUGCAGAAGGACAUGAGGAUCACCCAUGUAUAUUAUUGUUGUGUAUUAUAUAU [Title] (Eterna round: R96, puzzle: Exclusion NG 1)", "systemName": "MS2 coat protein", "testValue": 29.1}
{"constructSequence": "AAAGGACGAGGAUAUACAUGAGGAUCACCCAUGUAAAAAGCAUAAUAAAAUAACUUAUGUAGAAGGCGUCCAAA [Mat - Exclusion 3 - Eli mod - D91] (Eterna round: R96, puzzle: Exclusion 3)", "systemName": "MS2 coat protein", "testValue": 18.5}
{"constructSequence": "AAACAAACGGGAGGAUAUCGACAUAUUCAACUGCGAGAAGGCCCAAAAGACAUGAGGAUCACCCAUGUAAACCGGGUGAGAAAU [Rimabi] (Eterna round: R96, puzzle: Exclusion NG 1)", "systemName": "MS2 coat protein", "testValue": 185}
{"constructSequence": "AGCUGUGGCCGAGGAUAUCCACAUGAGGAUCACCCAUGUGAAUACCCAAUUAAGGGAUAACCGUGGGAGAAGGCGGUCUCAGCA [Eli eng2 - 048] (Eterna round: R96, puzzle: Exclusion NG 2)", "systemName": "MS2 coat protein", "testValue": 112}
{"constructSequence": "CGGUAGUGCUCAGGAUAUACAUGAGGAUCACCCAUGUAACUAGAAUCGGUCGUCCGAUCAGUGGUGUAGAAGGGAGGCUGGCUG [random 1, A 25%] (Eterna round: R96, puzzle: Exclusion NG 2)", "systemName": "MS2 coat protein", "testValue": 22}
{"constructSequence": "UUGUUAUAUGUAGGAUAUGCAUAUUAUUAUUAUGCAGAAGGACAUGAGGAUCACCCAUGUAUAUUAUUAUUAUAUAUUAUAUAU [Title] (Eterna round: R96, puzzle: Exclusion NG 1)", "systemName": "MS2 coat protein", "testValue": 22.4}
{"constructSequence": "GUCAGCUCGUCAGGAUAUAUAUACAUGAGGAUCACCCAUGUAAGAUCAGGCUUCGGCCAAUGUAUAUAGAAGGGACGAGCUGAC [ENG2/11-B1] (Eterna round: R96, puzzle: Exclusion NG 2)", "systemName": "MS2 coat protein", "testValue": 691}
{"constructSequence": "UAAUACAAGUAGAGAUUCUACAUGAGGAUCACCCAUGUGCUCGUCUUAUAAAGUACUAUCACGAAAGUGAUAGUACA [Mat - Sensor v3 - turn-off var 1 - Eli Mod - D97] (Eterna round: R96, puzzle: Sensor v3, turn-off variant 1)", "systemName": "MS2 coat protein", "testValue": 124}

Moving on to the next sequence.
**Q:** Form field: reported apparent KD of MS2 coat protein of CAGGAUAGAGGAUAUACAUAGAUACAGAUUCAUGUGAUCCUACAUGAGGAUCACCCAUGUAGAAGGCUAUCCUG [Fiskers Ex 2 - 21] (Eterna round: R96, puzzle: Exclusion 2)
**A:** 321
